Where do the numbers come from? From ChEMBL document CHEMBL1154748.

- Measurement description: Growth inhibition of VHL-null human RCC4 cells after 4 days by XTT assay
- Type: functional
- Test conditions: RCC4, 96 h
Readout kind: GI50 (µM)
Give bare numbers, in µM.

Hi! Can you tell me GI50 for each of these molecules?
1. Cc1cccc(Nc2nc(-c3ccncc3C)cs2)c1
2. COCC#Cc1cnccc1-c1csc(Nc2cccc(C)c2)n1
3. CC(=O)Nc1cnccc1-c1csc(Nc2cccc(C)c2)n1
4. Cc1cccc(N(C)c2nc(-c3ccncc3)cs2)c1
5. Cc1ccc(Nc2nc(-c3ccncc3)cs2)cc1O
6. Cc1ccc(Nc2nc(-c3ccncc3)c(CO)s2)cc1

A)
5.2
0.62
33.3
28
12
14

Hi! Can you tell me GI50 for each of these molecules?
1. Cc1cccc(Nc2nc(Cc3ccncc3)cs2)c1
2. Cc1cccc(Nc2nc(-c3ccncc3)c(C=O)s2)c1
3. Cc1cccc(Nc2nc(-c3ccncc3CCCO)cs2)c1
4. OCc1sc(Nc2ccccc2)nc1-c1ccncc1
5. Clc1ccccc1Nc1nc(-c2ccncc2)cs1
6. Cc1cccc(Nc2nc(-c3ccnc(F)c3)cs2)c1

A)
20.3
15
6.8
30
27.6
4.5
